EXPERIMENT DESCRIPTION: Hematology assays in cynomolgus monkeys (Example 45)
Type: in vivo
TEST CONTEXT: day 78; escalating dose regimen
The following substances are shown together with reported RBC count values.
Please give a number only; it is taken to be in µL⁻¹.

SUBSTANCE	SCALE UNIT	RBC count
ISIS 416864: MOE gapmer, nucleobases 1275 to 1318 of SEQ ID NO: 1 (Table 8) (antisense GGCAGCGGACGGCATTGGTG; MOE gapmer, wing and gap sizes not given here)	µL⁻¹	5.3e+06
ISIS 416838: MOE gapmer, nucleobases 1018 to 1042 of SEQ ID NO: 1 (Table 6) (antisense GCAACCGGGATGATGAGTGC; MOE gapmer, wing and gap sizes not given here)	µL⁻¹	5.4e+06

// lookup RBC count for ISIS 417002: MOE gapmer, nucleobases 1275 to 1318 of SEQ ID NO: 1 (Table 8) (antisense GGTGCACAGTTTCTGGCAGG; MOE gapmer, wing and gap sizes not given here)
5.4e+06

// lookup RBC count for ISIS 416850: MOE gapmer, nucleobases 1275 to 1318 of SEQ ID NO: 1 (Table 8) (antisense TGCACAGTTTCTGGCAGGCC; MOE gapmer, wing and gap sizes not given here)
5.3e+06

// lookup RBC count for ISIS 416858: MOE gapmer, nucleobases 1275 to 1318 of SEQ ID NO: 1 (Table 8) (antisense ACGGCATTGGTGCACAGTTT; MOE gapmer, wing and gap sizes not given here)
5.4e+06

====

The following substances are shown together with reported Percent change in spleen weight values.
EXPERIMENT DESCRIPTION: Tolerability in CD1 mice: organ weight (Example 33)
Type: in vivo
TEST CONTEXT: 50 mg/kg s.c. twice a week, 4 weeks, vs PBS control, normalized to body weight
Protocol: Three days after the last dose was administered to all groups, the mice were sacrificed.

Here is how some substances turned out for Percent change in spleen weight.
                                  substance  measurement
0  416850 (antisense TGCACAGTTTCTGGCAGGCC; 5-10-5 gapmer, further chemistry not given here) [compound 416850]          +6%
1  417003 (antisense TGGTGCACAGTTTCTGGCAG; 2-13-5 gapmer chemistry, further chemistry not given here) [compound 417003]        +101%
2  416999 (antisense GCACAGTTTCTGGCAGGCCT; 2-13-5 gapmer chemistry, further chemistry not given here) [compound 416999]         +22%
3  416925 (antisense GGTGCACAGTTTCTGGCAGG; 3-14-3 gapmer chemistry, further chemistry not given here) [compound 416925]         +33%
4  416825 (antisense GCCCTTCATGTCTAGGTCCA; 5-10-5 gapmer, further chemistry not given here) [compound 416825]         +19%

// lookup Percent change in spleen weight for 416858 (antisense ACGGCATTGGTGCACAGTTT; 5-10-5 gapmer, further chemistry not given here) [compound 416858]
+8%

====

The following substances are shown together with reported percent inhibition of Factor 11 at 0.7 μM values.
Test system: human Factor 11 mRNA
EXPERIMENT DESCRIPTION: Dose-dependent inhibition of human Factor 11 in HepG2 cells, electroporation 0.7-20 uM (Example 4)
Format: cell-based
TEST CONTEXT: 0.7 μM, relative to untreated control cells
Strand notation (5' to 3'): a small letter for the sugar, then the base; units joined by * are phosphorothioate-linked, units joined directly phosphodiester-linked; [ ] holds rarer units or linkages, { } end groups; capitals alone tell only the bases. e = 2'-O-(2-methoxyethyl) (MOE); [5mC] = 5-methylcytosine; d = 2'-deoxy (DNA)
Please give a number only; it is taken to be in %.

>>> print(df.to_string())
                                  substance  measurement
0  416972 (antisense eT*eA*dT*dG*d[5mC]*d[5mC]*d[5mC]*dT*dT*d[5mC]*dA*dT*dG*dT*d[5mC]*eT*eA*eG*eG*eT) [compound 416972]           25
1  416941 (antisense eG*eG*e[5mC]*dA*dG*d[5mC]*dG*dG*dA*d[5mC]*dG*dG*d[5mC]*dA*dT*dT*dG*eG*eT*eG) [compound 416941]           16
2  413476 (antisense eT*eT*eG*eA*eG*dA*dT*dT*d[5mC]*dT*dT*dT*dG*dG*dG*e[5mC]*e[5mC]*eA*eT*eT) [compound 413476]           40

// lookup percent inhibition of Factor 11 at 0.7 μM for 417002 (antisense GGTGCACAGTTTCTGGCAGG; 2-13-5 gapmer chemistry, further chemistry not given here) [compound 417002]
32

// lookup percent inhibition of Factor 11 at 0.7 μM for 416826 (antisense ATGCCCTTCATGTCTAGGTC; 5-10-5 gapmer, further chemistry not given here) [compound 416826]
2

// lookup percent inhibition of Factor 11 at 0.7 μM for 416931 (antisense eG*eG*e[5mC]*dA*dT*dT*dG*dG*dT*dG*d[5mC]*dA*d[5mC]*dA*dG*dT*dT*eT*e[5mC]*eT) [compound 416931]
7
